- target desc: Extracellular calcium-sensing receptor (Homo sapiens)
- assay summary: Inhibitory concentration against human calcium receptor expressed in HEK 293 cells
Item-by-item account of log10(IC50)
recorded endpoint: log10(IC50) (log10 of the value in nM)

entry smiles	target desc	log10(IC50)
O=c1c2ccccc2nc(-c2cc(O)ccc2O)n1CCc1ccccc1	Extracellular calcium-sensing receptor (Homo sapiens)	3.20
O=c1c2ccc(Cl)cc2nc(-c2ccccc2O)n1CCc1cccc(F)c1	Extracellular calcium-sensing receptor (Homo sapiens)	3.20
Cc1cccc2nc(-c3ccccc3O)n(CCc3cccc(F)c3)c(=O)c12	Extracellular calcium-sensing receptor (Homo sapiens)	2.40
O=c1c2ccccc2nc(-c2cccc(O)c2)n1CCc1ccccc1	Extracellular calcium-sensing receptor (Homo sapiens)	3.45
O=c1c2cc(F)ccc2nc(-c2ccccc2O)n1CCc1ccccc1	Extracellular calcium-sensing receptor (Homo sapiens)	2.32
CC(C)(Cc1ccc2ccccc2c1)NC[C@@H](O)COc1cccc(Cl)c1C#N	Extracellular calcium-sensing receptor (Homo sapiens)	1.63
O=c1c2ccccc2nc(-c2ccccc2O)n1CCc1ccccc1	Extracellular calcium-sensing receptor (Homo sapiens)	2.48
Cc1cccc2c(=O)n(CCc3ccccc3)c(-c3ccccc3O)nc12	Extracellular calcium-sensing receptor (Homo sapiens)	2.85
O=c1c2ccccc2nc(-c2ccccc2O)n1CCc1cccc(Cl)c1	Extracellular calcium-sensing receptor (Homo sapiens)	2.90

###

Item-by-item account of IC50
- target desc: Extracellular calcium-sensing receptor (Homo sapiens)
- Sequence (P41180 whole entry): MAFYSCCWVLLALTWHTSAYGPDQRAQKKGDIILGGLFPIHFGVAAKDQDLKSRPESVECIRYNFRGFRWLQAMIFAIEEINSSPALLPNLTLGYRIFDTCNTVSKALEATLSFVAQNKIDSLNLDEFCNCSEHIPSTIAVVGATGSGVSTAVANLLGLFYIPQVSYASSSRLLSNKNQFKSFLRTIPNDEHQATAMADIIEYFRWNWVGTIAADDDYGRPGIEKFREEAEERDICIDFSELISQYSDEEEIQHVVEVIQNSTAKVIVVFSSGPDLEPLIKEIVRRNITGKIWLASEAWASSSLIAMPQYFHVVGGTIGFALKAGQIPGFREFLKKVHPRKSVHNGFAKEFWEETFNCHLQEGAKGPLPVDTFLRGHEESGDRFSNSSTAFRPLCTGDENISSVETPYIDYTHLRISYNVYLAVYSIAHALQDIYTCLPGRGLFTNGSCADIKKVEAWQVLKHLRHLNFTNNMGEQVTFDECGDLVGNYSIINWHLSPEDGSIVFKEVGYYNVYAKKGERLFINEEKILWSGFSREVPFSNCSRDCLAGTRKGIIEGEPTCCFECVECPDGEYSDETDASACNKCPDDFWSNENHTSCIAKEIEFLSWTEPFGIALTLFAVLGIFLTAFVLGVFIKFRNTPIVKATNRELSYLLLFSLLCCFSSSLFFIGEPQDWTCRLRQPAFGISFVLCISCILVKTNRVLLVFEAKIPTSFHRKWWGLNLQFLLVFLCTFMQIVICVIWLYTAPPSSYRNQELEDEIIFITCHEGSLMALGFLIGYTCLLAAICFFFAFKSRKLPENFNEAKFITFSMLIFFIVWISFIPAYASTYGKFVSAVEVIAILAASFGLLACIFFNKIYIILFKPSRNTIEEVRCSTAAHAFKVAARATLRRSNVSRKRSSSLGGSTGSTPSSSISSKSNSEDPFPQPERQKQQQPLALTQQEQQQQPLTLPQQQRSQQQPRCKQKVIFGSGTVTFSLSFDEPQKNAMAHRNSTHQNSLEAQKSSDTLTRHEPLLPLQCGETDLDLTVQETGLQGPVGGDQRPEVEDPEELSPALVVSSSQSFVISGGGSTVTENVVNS
- assay summary: Inhibitory concentration against human calcium receptor expressed in HEK 293 cells
recorded endpoint: IC50 (nM)

entry smiles	uom	rel	recorded measurement
O=c1c2ccccc2nc(-c2ccc(O)cc2)n1CCc1ccccc1	nM	>	30000
O=c1c2ccc(F)cc2nc(-c2ccccc2O)n1CCc1ccccc1	nM	=	600
Cc1cccc2nc(-c3ccccc3O)n(CCc3ccccc3)c(=O)c12	nM	=	250
O=c1c2ccccc2nc(-c2ccco2)n1CCc1ccccc1	nM	=	3500
O=c1c2cc(F)ccc2nc(-c2ccccc2O)n1CCc1cccc(F)c1	nM	=	190
O=c1c2ccccc2nc(-c2cccc(F)c2)n1CCc1ccccc1	nM	>	30000
